Recorded RM by entry
measurement_protocol: Relative lipophilicity
Assay type: physicochemical
assay_setup: reversed-phase TLC, acetone/water 2:1

{"columns": ["compound", "RM"],
 "data": [
  ["O=C1CCC2(c3ccccc3)Nc3cc(Cl)ccc3N12 (stereo unspecified)", -0.007],
  ["O=C1CCC2(c3ccc(F)cc3)Nc3ccccc3N12 (stereo unspecified)", -0.084],
  ["CC12CCC(=O)N1c1cc(Cl)ccc1N2 (stereo unspecified)", -0.162],
  ["O=C1CCC2(c3ccc(F)cc3)Nc3cc(Cl)ccc3N12 (stereo unspecified)", 0.019],
  ["CC12CCC(=O)N1c1ccc([N+](=O)[O-])cc1N2 (stereo unspecified)", -0.187],
  ["O=C1CCC2(c3ccccc3)Nc3ccccc3N12 (stereo unspecified)", -0.131],
  ["O=C1CCC2(c3ccccc3)Nc3ccc(Cl)cc3N12 (stereo unspecified)", -0.005],
  ["CC12CCC(=O)N1c1ccc(Cl)cc1N2 (stereo unspecified)", -0.167],
  ["Cc1ccc2c(c1)N1C(=O)CCC1(C)N2 (stereo unspecified)", -0.279],
  ["O=C1CCC2(c3ccc(Cl)cc3)Nc3cc(Cl)ccc3N12 (stereo unspecified)", 0.068],
  ["CC12CCC(=O)N1c1ccccc1N2 (stereo unspecified)", -0.341]
]}
